Molecular target: HSV polymerase (Human herpesvirus 1)
Sequence (P04293 whole entry): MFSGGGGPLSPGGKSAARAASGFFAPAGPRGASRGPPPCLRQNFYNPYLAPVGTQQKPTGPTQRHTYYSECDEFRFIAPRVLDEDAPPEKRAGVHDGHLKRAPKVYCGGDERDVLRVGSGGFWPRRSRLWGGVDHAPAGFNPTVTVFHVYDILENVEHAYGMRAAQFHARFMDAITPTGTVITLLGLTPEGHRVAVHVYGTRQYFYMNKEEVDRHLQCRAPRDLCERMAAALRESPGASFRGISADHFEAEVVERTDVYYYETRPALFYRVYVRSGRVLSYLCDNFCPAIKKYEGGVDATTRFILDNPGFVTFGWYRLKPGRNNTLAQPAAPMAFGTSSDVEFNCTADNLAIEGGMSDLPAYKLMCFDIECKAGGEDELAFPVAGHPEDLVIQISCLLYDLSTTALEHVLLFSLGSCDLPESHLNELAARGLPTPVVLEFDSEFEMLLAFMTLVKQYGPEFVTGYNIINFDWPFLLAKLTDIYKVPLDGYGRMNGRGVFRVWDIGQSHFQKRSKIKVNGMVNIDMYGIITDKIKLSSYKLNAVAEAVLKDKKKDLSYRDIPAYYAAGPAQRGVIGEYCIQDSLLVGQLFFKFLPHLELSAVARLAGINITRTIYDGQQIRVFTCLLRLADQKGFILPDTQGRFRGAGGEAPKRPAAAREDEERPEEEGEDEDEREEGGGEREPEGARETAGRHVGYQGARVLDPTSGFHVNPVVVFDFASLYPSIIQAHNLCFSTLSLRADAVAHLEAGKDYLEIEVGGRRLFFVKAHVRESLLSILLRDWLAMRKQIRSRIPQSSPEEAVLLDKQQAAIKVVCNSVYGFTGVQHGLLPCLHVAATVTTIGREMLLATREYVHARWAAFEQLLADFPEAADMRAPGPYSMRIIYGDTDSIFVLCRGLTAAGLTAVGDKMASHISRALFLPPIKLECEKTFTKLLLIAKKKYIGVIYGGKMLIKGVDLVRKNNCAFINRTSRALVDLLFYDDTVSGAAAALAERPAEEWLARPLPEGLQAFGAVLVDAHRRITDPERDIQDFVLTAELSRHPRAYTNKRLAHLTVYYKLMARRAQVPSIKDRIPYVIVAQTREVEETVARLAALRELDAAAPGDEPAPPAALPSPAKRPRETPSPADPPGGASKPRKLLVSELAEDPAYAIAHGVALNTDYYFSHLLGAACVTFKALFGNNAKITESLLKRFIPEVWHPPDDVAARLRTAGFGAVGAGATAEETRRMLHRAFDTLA
Assay: HSV polymerase assay (Table 1)
Assay type: biochemical
// NB: equality with 0.5 µM counts as false (0); only IC50 strictly below is true (1)

Smiles input: O=C(NCc1ccc(Cl)cc1)c1cn(-c2cccc(O)c2)c2ccc(CN3CCOCC3)cc2c1=O
Test system: HSV polymerase (Human herpesvirus 1)
Discrete label: false (0)
//
Smiles input: O=C(NCc1ccc(Cl)cc1)c1cn(-c2cccc(CCO)c2)c2ccc(CN3CCOCC3)cc2c1=O
Test system: HSV polymerase (Human herpesvirus 1)
Discrete label: false (0)

query: Given O=C(NCc1ccc(Cl)cc1)c1cn(-c2cccc(CCCO)c2)c2ccc(CN3CCOCC3)cc2c1=O , is recorded IC50 strictly lower than 0.5 µM?
result: false (0)

query: Given O=C(NCc1ccc(Cl)cc1)c1cn(-c2cccc(C#CCO)c2)c2ccc(CN3CCOCC3)cc2c1=O , is recorded IC50 strictly lower than 0.5 µM?
result: false (0)

query: Given O=C(NCc1ccc(Cl)cc1)c1cn(-c2cccc(CO)c2)c2ccc(CN3CCOCC3)cc2c1=O , is recorded IC50 strictly lower than 0.5 µM?
result: true (1)

query: Given O=C(NCc1ccc(Cl)cc1)c1cn(-c2ccccc2)c2ccc(CN3CCOCC3)cc2c1=O , is recorded IC50 strictly lower than 0.5 µM?
result: false (0)

====

Parameter measured: melting point

Smiles input: O=C(NCc1ccc(Cl)cc1)c1cn(-c2cccc(C#CCCO)c2)c2ccc(CN3CCOCC3)cc2c1=O
melting point: 125 to 128 °C
//
Smiles input: O=C(NCc1ccc(Cl)cc1)c1cn(-c2ccc3c(c2)OCO3)c2ccc(CN3CCOCC3)cc2c1=O
melting point: 188 to 189 °C

Lab book: melting point of O=C(NCc1ccc(Cl)cc1)c1cn(-c2cccc(I)c2)c2ccc(CN3CCOCC3)cc2c1=O noted as 176 to 179 °C

Lab book: melting point of COc1ccc(-n2cc(C(=O)NCc3ccc(Cl)cc3)c(=O)c3cc(CN4CCOCC4)ccc32)cc1 noted as 189 to 191 °C

Lab book: melting point of O=C(NCc1ccc(Cl)cc1)c1cn(-c2ccc(N3CCOCC3)cc2)c2ccc(CN3CCOCC3)cc2c1=O noted as 162 to 164 °C

Lab book: melting point of O=C(NCc1ccc(Cl)cc1)c1cn(-c2cccc(CCCO)c2)c2ccc(CN3CCOCC3)cc2c1=O noted as 115 to 118 °C

====

Parameter measured: melting point

Record excerpt, results attached:
Smiles input: O=C(NCc1ccc(Cl)cc1)c1cn(-c2ccc(F)c(F)c2)c2ccc(CN3CCOCC3)cc2c1=O
Parameter measured: melting point
Observed value: 107 to 110 °C
--
Smiles input: CC(C)c1ccc(-n2cc(C(=O)NCc3ccc(Cl)cc3)c(=O)c3cc(CN4CCOCC4)ccc32)cc1
Parameter measured: melting point
Observed value: 199 to 203 °C
--
Smiles input: Cc1ccccc1-n1cc(C(=O)NCc2ccc(Cl)cc2)c(=O)c2cc(CN3CCOCC3)ccc21
Parameter measured: melting point
Observed value: 148 to 150 °C
--
Smiles input: O=C(NCc1ccc(Cl)cc1)c1cn(-c2cccc(CCO)c2)c2ccc(CN3CCOCC3)cc2c1=O
Parameter measured: melting point
Observed value: 158 to 160 °C
--
Smiles input: O=C(NCc1ccc(Cl)cc1)c1cn(-c2cccc(O)c2)c2ccc(CN3CCOCC3)cc2c1=O
Parameter measured: melting point
Observed value: 248 to 250 °C

Lab book: melting point of O=C(NCc1ccc(Cl)cc1)c1cn(-c2cccc(C#CCO)c2)c2ccc(CN3CCOCC3)cc2c1=O noted as 145 to 148 °C

Lab book: melting point of O=C(NCc1ccc(Cl)cc1)c1cn(-c2ccc3c(c2)CCC3)c2ccc(CN3CCOCC3)cc2c1=O noted as 123 to 125 °C

====

Target: HCMV polymerase (Human cytomegalovirus)
Construct: made in house; host or cells: recombinant baculovirus-infected SF-9 cells
Sequence (P08546 whole entry): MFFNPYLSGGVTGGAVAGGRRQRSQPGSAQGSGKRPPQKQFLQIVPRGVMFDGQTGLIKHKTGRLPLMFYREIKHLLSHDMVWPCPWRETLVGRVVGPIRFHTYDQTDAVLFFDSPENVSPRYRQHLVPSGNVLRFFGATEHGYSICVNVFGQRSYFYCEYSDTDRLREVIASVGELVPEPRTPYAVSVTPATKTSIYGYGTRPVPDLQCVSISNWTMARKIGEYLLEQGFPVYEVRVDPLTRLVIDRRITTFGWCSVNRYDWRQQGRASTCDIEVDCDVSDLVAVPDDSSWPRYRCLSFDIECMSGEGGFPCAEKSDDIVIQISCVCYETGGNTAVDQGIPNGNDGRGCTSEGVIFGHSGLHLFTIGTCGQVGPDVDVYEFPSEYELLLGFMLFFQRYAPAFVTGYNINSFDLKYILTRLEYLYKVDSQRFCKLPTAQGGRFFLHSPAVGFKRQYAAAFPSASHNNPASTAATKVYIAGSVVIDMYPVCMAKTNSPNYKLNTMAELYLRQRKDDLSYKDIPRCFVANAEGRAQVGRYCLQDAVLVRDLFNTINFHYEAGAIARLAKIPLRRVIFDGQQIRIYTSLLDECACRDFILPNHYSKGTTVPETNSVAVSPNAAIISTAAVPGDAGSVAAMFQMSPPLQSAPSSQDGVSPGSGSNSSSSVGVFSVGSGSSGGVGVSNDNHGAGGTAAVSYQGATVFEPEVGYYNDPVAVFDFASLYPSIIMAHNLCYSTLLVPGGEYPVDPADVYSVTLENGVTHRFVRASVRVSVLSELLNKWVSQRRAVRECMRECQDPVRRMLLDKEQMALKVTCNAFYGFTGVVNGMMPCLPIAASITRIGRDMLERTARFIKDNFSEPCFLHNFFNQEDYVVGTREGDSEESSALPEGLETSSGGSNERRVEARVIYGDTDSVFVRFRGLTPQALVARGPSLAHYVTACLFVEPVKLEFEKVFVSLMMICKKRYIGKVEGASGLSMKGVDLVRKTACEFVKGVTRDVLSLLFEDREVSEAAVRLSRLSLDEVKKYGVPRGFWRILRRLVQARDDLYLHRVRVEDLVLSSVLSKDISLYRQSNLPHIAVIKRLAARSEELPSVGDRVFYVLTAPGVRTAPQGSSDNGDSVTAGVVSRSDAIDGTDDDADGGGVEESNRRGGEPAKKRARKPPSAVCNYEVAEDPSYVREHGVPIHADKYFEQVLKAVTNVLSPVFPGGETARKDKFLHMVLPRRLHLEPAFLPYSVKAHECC
Test: HCMV polymerase scintillation proximity assay (SPA)
Format: biochemical
Conditions: 3H-dTTP incorporation
Reported IC50 values are given for each entry in this list.
// units = µM; emit number, no label

Smiles input: O=C(NCc1ccc(Cl)cc1)c1cn(-c2cccc(O)c2)c2ccc(CN3CCOCC3)cc2c1=O
IC50 [µM]: 0.73

Lab book: IC50 of O=C(NCc1ccc(Cl)cc1)c1cn(-c2ccc(N3CCOCC3)cc2)c2ccc(CN3CCOCC3)cc2c1=O noted as 1.21

Lab book: IC50 of O=C(NCc1ccc(Cl)cc1)c1cn(-c2cccc(CO)c2)c2ccc(CN3CCOCC3)cc2c1=O noted as 0.74

Lab book: IC50 of O=C(NCc1ccc(Cl)cc1)c1cn(-c2ccc3c(c2)OCO3)c2ccc(CN3CCOCC3)cc2c1=O noted as 0.89
